Every entry's value here was drawn from patent US9260448B2.

# tgt: UniProtKB Q13255
# Sequence (Q13255 19-1194): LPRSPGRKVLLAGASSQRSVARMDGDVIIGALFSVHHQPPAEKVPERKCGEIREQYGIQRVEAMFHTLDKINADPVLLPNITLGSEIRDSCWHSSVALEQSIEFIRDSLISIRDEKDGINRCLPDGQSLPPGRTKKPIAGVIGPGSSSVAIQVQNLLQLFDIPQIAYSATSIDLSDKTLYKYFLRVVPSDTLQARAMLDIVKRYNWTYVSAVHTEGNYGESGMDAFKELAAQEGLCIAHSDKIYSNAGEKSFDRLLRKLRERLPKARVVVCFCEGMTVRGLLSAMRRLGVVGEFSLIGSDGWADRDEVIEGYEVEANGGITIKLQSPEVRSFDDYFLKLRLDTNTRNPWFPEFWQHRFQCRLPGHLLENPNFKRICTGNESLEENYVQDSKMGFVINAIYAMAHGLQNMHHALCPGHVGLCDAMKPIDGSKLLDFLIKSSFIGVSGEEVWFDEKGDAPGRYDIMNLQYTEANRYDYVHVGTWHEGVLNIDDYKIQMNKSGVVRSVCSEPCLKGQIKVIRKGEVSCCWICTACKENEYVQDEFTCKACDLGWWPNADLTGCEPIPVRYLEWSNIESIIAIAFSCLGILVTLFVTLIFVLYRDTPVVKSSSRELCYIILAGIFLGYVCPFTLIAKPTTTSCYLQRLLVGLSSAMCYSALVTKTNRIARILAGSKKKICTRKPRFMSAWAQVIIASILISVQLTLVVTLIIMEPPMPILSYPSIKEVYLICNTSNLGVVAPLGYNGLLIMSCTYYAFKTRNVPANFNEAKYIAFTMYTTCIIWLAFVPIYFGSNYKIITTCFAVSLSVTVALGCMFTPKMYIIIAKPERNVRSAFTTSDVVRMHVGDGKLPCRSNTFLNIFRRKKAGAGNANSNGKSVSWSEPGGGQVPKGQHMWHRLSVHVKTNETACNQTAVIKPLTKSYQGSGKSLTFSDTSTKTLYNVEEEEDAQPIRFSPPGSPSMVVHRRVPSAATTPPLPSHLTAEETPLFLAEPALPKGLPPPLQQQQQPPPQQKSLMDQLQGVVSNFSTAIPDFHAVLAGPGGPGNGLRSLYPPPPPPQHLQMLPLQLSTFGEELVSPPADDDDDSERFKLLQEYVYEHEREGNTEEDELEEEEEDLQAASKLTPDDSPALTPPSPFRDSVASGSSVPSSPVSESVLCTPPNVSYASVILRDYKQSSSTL
# assay details: mGluR1 activity screening using FDSS6000 (intracellular calcium, L-Glutamate stimulation)
# Assay type: cell-based
# measurement context: Chem3 Cell Line (HTS145C:Millipore) stably expressing mGluR1, L-Glutamate 30 μM, Ca2+ fluorescent dye, read-out: IC50 (nM) against mGluR1
recorded endpoint: IC50

Worked examples, 5 compounds total:
compound="Cc1ccc(-c2csc3c(=O)n(-c4ccc(Cl)cc4)cnc23)cc1 [Compound 58]" recorded_endpoint=IC50 reading="80 nM"
compound="O=c1c2scc(-c3ccc4c(c3)OCO4)c2ncn1-c1ccc(Cl)cc1 [Compound 68]" recorded_endpoint=IC50 reading="447 nM"
compound="O=c1c2scc(-c3ccccc3)c2ncn1-c1ccccc1F [Compound 2]" recorded_endpoint=IC50 reading="407 nM"
compound="Cc1ccc(-n2cnc3c(-c4ccccc4)csc3c2=O)cc1 [Compound 18]" recorded_endpoint=IC50 reading="112 nM"
compound="COc1ccc(-n2cnc3c(-c4ccc(C)cc4)csc3c2=O)cc1 [Compound 59]" recorded_endpoint=IC50 reading="661 nM"

Please give the measured IC50 for this compound: O=c1c2scc(-c3ccccc3)c2ncn1-c1ccc(Cl)cc1 [Compound 7]
66 nM

State the recorded IC50 for this entry: O=c1c2scc(-c3ccccc3F)c2ncn1-c1ccc(Cl)cc1 [Compound 32]
30 nM

I have this compound here, C=Cc1cccc(-n2cnc3c(-c4ccccc4)csc3c2=O)c1 [Compound 29] , and I need its recorded IC50.
74 nM

// IC50 lookup, key: O=c1c2scc(-c3ccccc3)c2ncn1-c1cccc(Cl)c1 [Compound 6]
58 nM

Could you tell me which IC50 is on file for COc1ccc(-n2c(C)nc3c(-c4ccccc4)csc3c2=O)cc1 [Compound 74] ?
564 nM

I would be grateful if you could share the reported IC50 for COc1ccc(-n2cnc3c(-c4ccc5c(c4)OCO5)csc3c2=O)cc1 [Compound 69] .
1990 nM
